# test.system: Escherichia coli rhomboid GlpG (Escherichia coli, UniProt P09391)
# Sequence (P09391 whole entry): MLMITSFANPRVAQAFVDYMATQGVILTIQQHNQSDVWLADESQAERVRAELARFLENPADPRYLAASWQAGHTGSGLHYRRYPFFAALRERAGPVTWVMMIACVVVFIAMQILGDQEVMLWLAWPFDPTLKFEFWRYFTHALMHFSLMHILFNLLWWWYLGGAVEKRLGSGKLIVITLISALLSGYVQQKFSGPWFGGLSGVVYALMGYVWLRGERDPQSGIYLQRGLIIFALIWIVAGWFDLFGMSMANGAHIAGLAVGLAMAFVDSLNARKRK
Residues, ends and D or L forms follow the SMILES beside them. *: point of attachment. CH2Cl = ClC*
experimental.readout: pIC50
Scale: negative log10 of molar concentration, which is what pIC50 denotes.

Solved entries (count: 4):
>>> measured_value("CC(=O)N[C@H](C(=O)N[C@@H](C)C(=O)N[C@H](C(=O)N[C@@H](C)C(=O)CCl)[C@@H](C)O)C(C)C [AcVATAcmk] (Ac-VATA-CH2Cl)")
3.35
>>> measured_value("CC(=O)N[C@@H](CCCNC(=N)N)C(=O)N[C@@H](Cc1c[nH]cn1)C(=O)N[C@@H](C)C(=O)C(=O)NCCc1ccccc1")
5.05
>>> measured_value("CC[C@H](C)[C@H](NC(C)=O)C(=O)N[C@@H](C)C(=O)N[C@H](C(=O)N[C@@H](C)C(=O)CCl)[C@@H](C)O [AcIATAcmk, reference compound] (Ac-IATA-CH2Cl)")
3.67
>>> measured_value("CC(=O)N[C@H](C(=O)N[C@@H](CCCNC(=N)N)C(=O)N[C@@H](Cc1c[nH]cn1)C(=O)N[C@@H](C)C(=O)C(=O)NCCc1ccccc1)C(C)C")
6.26

Let us move to another entry and its pIC50.
Value (pIC50, Escherichia coli rhomboid GlpG (Escherichia coli, UniProt P09391)) for record CC[C@H](C)[C@H](NC(C)=O)C(=O)N[C@@H](C)C(=O)N[C@@H](Cc1c[nH]cn1)C(=O)N[C@@H](C)C(=O)CCl [AcIAHAcmk] (Ac-IAHA-CH2Cl) = 3.70

---

Starred links: 1 amine or outer side, 2 acyl side, 3 side chain; linkers in the order of their positions; H or OH if unused. Non-standard residues stand in square brackets, D forms with d. Residues, ends and D or L forms follow the SMILES beside them. ξ: configuration not given here. *: point of attachment. X1 = C[C@H](N[*:1])C(=O)C(=O)[*:2]; X3 = C[C@H](N*)C(=O)NS(C)(=O)=O; NHPhenethyl = c1ccc(CCN*)cc1; boroAla = C[C@H](N*)B(O)O; ξA = CC(N)C(=O)O; CF3 = FC(F)(F)*; CH2Cl = ClC*
Measurement record for Escherichia coli rhomboid GlpG (Escherichia coli, UniProt P09391); quantity recorded: IC50.

Solved entries (count: 3):
>>> measured_value("CC(=O)N[C@@H](C)C(=O)C(=O)NCCc1ccccc1")
"> 1000 µM"
>>> measured_value("CC(=O)N[C@H](C(=O)N[C@@H](CCCNC(=N)N)C(=O)N[C@@H](Cc1c[nH]cn1)C(=O)N[C@@H](C)C(=O)CCl)C(C)C [AcVRHAcmk] (Ac-VRHA-CH2Cl)")
"27 µM"
>>> measured_value("CC(=O)N[C@@H](CCCNC(=N)N)C(=O)N[C@H](C(=O)N[C@@H](CCCNC(=N)N)C(=O)N[C@@H](Cc1c[nH]cn1)C(=O)N[C@@H](C)B(O)O)C(C)C [boronate, AcRVRHA-boronate] (Ac-RVRH-boroAla)")
"8 µM"

Value (IC50, Escherichia coli rhomboid GlpG (Escherichia coli, UniProt P09391)) for record CC(=O)N[C@@H](CCCNC(=N)N)C(=O)N[C@H](C(=O)N[C@@H](CCCNC(=N)N)C(=O)N[C@@H](Cc1c[nH]cn1)C(=O)N[C@@H](C)C(=O)C(=O)NCCc1ccccc1)C(C)C [compound 9, Ac-RVRHA-CONH-phenylethyl] (Ac-RVRH[X1]-NHPhenethyl) = 0.44 µM

Value (IC50, Escherichia coli rhomboid GlpG (Escherichia coli, UniProt P09391)) for record CC(=O)N[C@@H](CCCNC(=N)N)C(=O)N[C@H](C(=O)N[C@@H](CCCNC(=N)N)C(=O)N[C@@H](Cc1c[nH]cn1)C(=O)N[C@@H](C)C(=O)NS(C)(=O)=O)C(C)C [acylsulfonamide, AcRVRHA-acylsulfonamide] (Ac-RVRH-X3) = > 1000 µM

Value (IC50, Escherichia coli rhomboid GlpG (Escherichia coli, UniProt P09391)) for record CC(=O)N[C@@H](CCCNC(=N)N)C(=O)N[C@H](C(=O)N[C@@H](CCCNC(=N)N)C(=O)N[C@@H](Cc1c[nH]cn1)C(=O)NC(C)C(=O)C(F)(F)F)C(C)C (stereo partly shown) [trifluoromethylketone, AcRVRHA-trifluoromethylketone] (Ac-RVRH[ξA]-CF3) = > 1000 µM

---

# test.system: Escherichia coli rhomboid GlpG (Escherichia coli, UniProt P09391)
Residues, ends and D or L forms follow the SMILES beside them. *: point of attachment. CH2Cl = ClC*
Overview of reported pIC50 across a group of compounds:
Scale: negative log10 of molar concentration, which is what pIC50 denotes.

>>> measured_value("CC[C@H](C)[C@H](NC(C)=O)C(=O)N[C@@H](CCCNC(=N)N)C(=O)N[C@H](C(=O)N[C@@H](C)C(=O)CCl)[C@@H](C)O [AcIRTAcmk] (Ac-IRTA-CH2Cl)")
4.08

Let us move to another entry and its pIC50.
pIC50 reading for CC(=O)N[C@@H](CCCNC(=N)N)C(=O)N[C@H](C(=O)N[C@@H](CCCNC(=N)N)C(=O)N[C@@H](Cc1c[nH]cn1)C(=O)N[C@@H](C)C(=O)CCl)C(C)C [AcRVRHAcmk] (Ac-RVRHA-CH2Cl) : 5.10
